measured-on: BChE (horse-serum E.C 3.1.1.8) (Equus caballus, UniProt P81908)
Sequence (P81908 whole entry): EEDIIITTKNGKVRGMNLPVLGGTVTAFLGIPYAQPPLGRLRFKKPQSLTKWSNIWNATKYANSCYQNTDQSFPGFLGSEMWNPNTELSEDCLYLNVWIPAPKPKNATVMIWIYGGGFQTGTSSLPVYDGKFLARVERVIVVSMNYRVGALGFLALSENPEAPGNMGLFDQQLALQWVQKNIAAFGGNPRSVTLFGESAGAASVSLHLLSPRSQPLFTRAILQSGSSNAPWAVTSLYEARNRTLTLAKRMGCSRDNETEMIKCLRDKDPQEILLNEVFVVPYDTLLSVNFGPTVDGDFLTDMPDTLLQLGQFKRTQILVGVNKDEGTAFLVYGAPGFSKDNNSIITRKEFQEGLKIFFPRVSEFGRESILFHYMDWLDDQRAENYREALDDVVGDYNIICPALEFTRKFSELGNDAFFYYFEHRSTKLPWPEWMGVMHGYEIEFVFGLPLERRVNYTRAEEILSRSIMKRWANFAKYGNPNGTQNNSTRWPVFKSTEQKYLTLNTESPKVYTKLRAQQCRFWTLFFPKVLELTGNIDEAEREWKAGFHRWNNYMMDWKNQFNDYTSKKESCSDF
protocol-details: Cholinesterase inhibition assay (Ellman spectrophotometric method), BChE
condition-context: standard error of mean of five assays; DTNB, pH 8.0, 25 °C; read-out: BChE ± SEM (IC50)
result-type: pIC50
Scale: pIC50 equals -log10([C]), with [C] in mol/L.

Q) BChE (horse-serum E.C 3.1.1.8) (Equus caballus, UniProt P81908) / pIC50 / CCN1CC2(COC)CCC(O)C34C5CC6C(OC)CC(O)(C(CC23)C14)C5C6O (stereo not shown) [Isotalatizidine hydrate, isotalatizidine hydrate] : value?
A) 4.67
